So I've got a bunch of compounds here, and I need their IC50 values.
Assay System: human S1P1 (Homo sapiens (Human), UniProt P21453)
Assay Name: S1P1 binding assay (33P-S1P radioligand competition, CHO cell membranes)
Recorded Conditions: phosphate examples; read-out: S1P1 Binding

Entry under review: `N[C@]1(COP(=O)(O)O)CC[C@H](c2ccc3c(c2)CC[C@@H](CSCCc2ccccn2)C3)C1` . Reported IC50?
10 to 100 nM

Another: `COCCC[C@H]1CCc2cc([C@@H]3CC[C@@](N)(COP(=O)(O)O)C3)ccc2C1`
< 10 nM

Another: `Cc1ccc(OC[C@@H]2CCc3cc([C@H]4CC[C@](N)(COP(=O)(O)O)C4)ccc3C2)cc1`
10 to 100 nM

Another: `CC(C)c1cccc(OC[C@@H]2CCc3cc([C@H]4CC[C@](N)(COP(=O)(O)O)C4)ccc3C2)c1`
10 to 100 nM

Another: `COc1ccccc1SC[C@@H]1CCc2cc([C@H]3CC[C@](N)(COP(=O)(O)O)C3)ccc2C1`
< 10 nM

Another: `CC(C)(C)CSC[C@H]1CCc2cc([C@H]3CC[C@](N)(COP(=O)(O)O)C3)ccc2C1`
< 10 nM

Another: `CCCCCC[C@H]1CCc2cc([C@H]3CC[C@](N)(COP(=O)(O)O)C3)c(C)cc2C1`
< 10 nM

Another: N[C@@]1(COP(=O)(O)O)CC[C@@H](c2ccc3c(c2)CC[C@H](OCCOCc2cccs2)C3)C1 (single isomer, unassigned)
< 10 nM

Another: `C=CCCOCCO[C@H]1CCc2cc([C@@H]3CC[C@@](N)(COP(=O)(O)O)C3)ccc2C1`
< 10 nM

Another: `Cc1cc(COC[C@@H]2CCc3cc([C@H]4CC[C@](N)(COP(=O)(O)O)C4)ccc3C2)sc1C`
< 10 nM

Another: `C=CCCOC[C@@H]1CCc2cc([C@H]3CC[C@](N)(COP(=O)(O)O)C3)ccc2C1`
< 10 nM

Another: `CCOc1cccc(CO[C@@H]2CCc3cc([C@H]4CC[C@](N)(COP(=O)(O)O)C4)ccc3C2)c1`
< 10 nM

Another: N[C@@]1(COP(=O)(O)O)CCC(c2ccc3c(c2)CN(CCCc2ccccc2)C3=O)C1 (some centres unmarked)
1000 to 10000 nM

Another: `CCCCOC[C@@H]1COc2cc([C@H]3CC[C@](N)(COP(=O)(O)O)C3)ccc2O1`
< 10 nM

Another: `N[C@]1(COP(=O)(O)O)CC[C@H](c2ccc3c(c2)CC[C@@H](COc2ccc(F)cc2)C3)C1`
< 10 nM

Another: N[C@@]1(COP(=O)(O)O)CC[C@@H](c2ccc3c(c2)CC[C@H](OCCOc2ccccc2)C3)C1 (single isomer, unassigned)
< 10 nM

Another: `COc1ccccc1OC[C@@H]1CCc2cc([C@H]3CC[C@](N)(COP(=O)(O)O)C3)ccc2C1`
< 10 nM

----------
Assay System: hS1P1/CHO cells (Homo sapiens (Human))
Sequence (P21453 whole entry): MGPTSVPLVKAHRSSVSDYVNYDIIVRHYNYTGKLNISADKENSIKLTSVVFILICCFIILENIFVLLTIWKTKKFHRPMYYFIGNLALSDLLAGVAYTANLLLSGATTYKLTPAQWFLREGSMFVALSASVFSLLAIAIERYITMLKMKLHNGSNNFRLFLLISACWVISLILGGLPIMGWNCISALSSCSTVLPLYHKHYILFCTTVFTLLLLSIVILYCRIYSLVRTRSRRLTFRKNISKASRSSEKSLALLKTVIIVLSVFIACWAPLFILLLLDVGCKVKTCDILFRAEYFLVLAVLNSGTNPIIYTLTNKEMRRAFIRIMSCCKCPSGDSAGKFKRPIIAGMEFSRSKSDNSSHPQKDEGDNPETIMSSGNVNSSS
Assay Name: hS1P1 ERK phosphorylation (S1P1 pERK)
Recorded Conditions: phosphate examples
Readout Kind: EC50

Entry under review: `N[C@]1(COP(=O)(O)O)CC[C@H](c2ccc3c(c2)CC[C@@H](COCc2ccsc2)C3)C1` . Reported EC50?
10 to 100 nM

Another: `CC(C)COCC[C@H]1CCc2cc([C@H]3CC[C@](N)(COP(=O)(O)O)C3)ccc2C1`
< 10 nM

Another: `COc1ccc(COC[C@@H]2CCc3cc([C@H]4CC[C@](N)(COP(=O)(O)O)C4)ccc3C2)cc1`
10 to 100 nM
